- TEST_SUMMARY: Pharmacokinetic study
- Type: in vivo, SD rats
- RUN_CONDITIONS: male, SD, rat, plasma, iv, 3 mg/kg, rat, i.v. 3 mg/kg, individual animals 4-6; read-out: CL_obs

{"columns": ["INPUT_SMILES", "clearance (mL/min/kg)"],
 "data": [
  ["C[C@H](Oc1ccc(-c2nc3nc(C4=CCN(C(=O)OC(C)(C)C)CC4)ccc3[nH]2)cc1)c1ccccc1", 219]
]}

* * *

- TEST_SUMMARY: Pharmacokinetic study
- Format: in vivo, SD rats
- RUN_CONDITIONS: male, SD, rat, plasma, po, 10 mg/kg, rat, p.o. 10 mg/kg, individual animals 1-3; read-out: AUCINF_obs

{"columns": ["INPUT_SMILES", "AUC(0-inf) [ng·h/mL]"],
 "data": [
  ["C[C@H](Oc1ccc(-c2nc3nc(C4=CCN(C(=O)OC(C)(C)C)CC4)ccc3[nH]2)cc1)c1ccccc1", 57.9]
]}

* * *

- TEST_SUMMARY: Pharmacokinetic study
- Type: in vivo, SD rats
- RUN_CONDITIONS: male, SD, rat, plasma, iv, 3 mg/kg, i.v. 3 mg/kg, 2.00 h; read-out: Concentration in rat plasma, mean
- Description: W2014-S was given to SD rats (male, 230-260g, n = 6) by gavage and intravenous administration. The rats were fasted for 12 h before administration and remained fasting for 2 h. For oral gavage, W2014-S was dissolved in DMSO/0.5% HPMC (5/95, v/v/), and W2014-S was dissolved in DMSO/EtOH/PEG300/0.9% NaCl (5/5/40/50, v/v/v/v) for intravenous administration. The pharmacokinetic (PK) profiles were next evaluated in SD rats.
OUTCOME_MEASURE: concentration at 2 h (ng/mL)

{"columns": ["COMPOUND", "OBSERVED"],
 "data": [
  ["C[C@H](Oc1ccc(-c2nc3nc(C4=CCN(C(=O)OC(C)(C)C)CC4)ccc3[nH]2)cc1)c1ccccc1 [W2014-S]", 17.9]
]}

* * *

- TEST_SUMMARY: Pharmacokinetic study
- Format: in vivo, SD rats
- RUN_CONDITIONS: male, SD, rat, plasma, iv, 3 mg/kg, rat, i.v. 3 mg/kg, mean; read-out: MRTINF_obs
OUTCOME_MEASURE: MRT inf (h)

{"columns": ["COMPOUND", "OUTCOME_MEASURE", "ENDPOINT_UNIT", "OBSERVED"],
 "data": [
  ["C[C@H](Oc1ccc(-c2nc3nc(C4=CCN(C(=O)OC(C)(C)C)CC4)ccc3[nH]2)cc1)c1ccccc1 [W2014-S]", "MRT inf", "h", 6.3]
]}

* * *

- TEST_SUMMARY: Pharmacokinetic study
- Type: in vivo, SD rats
- RUN_CONDITIONS: male, Sprague-Dawley (SD), rat, plasma, po, 10 mg/kg, SD rats, 10 mg/kg po, mean; read-out: AUC0-last

{"columns": ["INPUT_SMILES", "ENDPOINT_UNIT", "AUC(0-t)"],
 "data": [
  ["C[C@H](Oc1ccc(-c2nc3nc(C4=CCN(C(=O)OC(C)(C)C)CC4)ccc3[nH]2)cc1)c1ccccc1", "ng·h/mL", 54.6]
]}

* * *

- TEST_SUMMARY: Pharmacokinetic study
- Type: in vivo, SD rats
- RUN_CONDITIONS: male, SD, rat, plasma, iv, 3 mg/kg, i.v. 3 mg/kg, 0.25 h; read-out: Concentration in rat plasma, individual animals 4-6

{"columns": ["COMPOUND", "ENDPOINT_UNIT", "concentration at 0.25 h"],
 "data": [
  ["C[C@H](Oc1ccc(-c2nc3nc(C4=CCN(C(=O)OC(C)(C)C)CC4)ccc3[nH]2)cc1)c1ccccc1 [W2014-S]", "ng/mL", 159]
]}

* * *

- TEST_SUMMARY: Pharmacokinetic study
- Assay type: in vivo, SD rats
- RUN_CONDITIONS: male, SD, rat, plasma, iv, 3 mg/kg, i.v. 3 mg/kg, 4.00 h; read-out: Concentration in rat plasma, mean

{"columns": ["MOLECULE", "concentration at 4 h"],
 "data": [
  ["C[C@H](Oc1ccc(-c2nc3nc(C4=CCN(C(=O)OC(C)(C)C)CC4)ccc3[nH]2)cc1)c1ccccc1 [W2014-S]", "3.83 ng/mL"]
]}

* * *

- TEST_SUMMARY: Pharmacokinetic study
- Type: in vivo, SD rats
- RUN_CONDITIONS: male, Sprague-Dawley (SD), rat, plasma, po, 10 mg/kg, SD rats, 10 mg/kg po, mean; read-out: Cmax

{"columns": ["INPUT_SMILES", "Cmax (ng/mL)"],
 "data": [
  ["C[C@H](Oc1ccc(-c2nc3nc(C4=CCN(C(=O)OC(C)(C)C)CC4)ccc3[nH]2)cc1)c1ccccc1", 23.8]
]}
